system: ACVRL1; conditions: concentration: 1 μM,replicates: in singlicate; n = 1;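 further: KINOMEscan kinase panel screen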
readout_type: %Inh (%)
Quick note: give the figure in %, leave out the unit.

GET /value?item= Cc1cc2cn[nH]c2cc1-c1cccc2c(N)c(C(N)=O)nnc12 &field=%Inh returns 74

GET /value?item= O=C(NCCNc1ccnc(NCc2ccc(F)cc2)n1)c1cc2ccccc2s1 &field=%Inh returns 0

* * *

tested on: RIPK2; details: concentration: 1 μM,replicates: in singlicate; n = 1
readout_type: %Inh (%)
Quick note: give the figure in %, leave out the unit.

Before answering, review these 2 worked examples.
| molecule | units_of_measure | data_value |
| --- | --- | --- |
| CCN(CC)CCCCNc1ncc2cc(-c3c(Cl)cccc3Cl)c(NC(=O)NC(C)(C)C)nc2n1 | % | 54 |
| Cc1ccc2c(-c3ccncc3)c(-c3ccc(F)cc3)nn2c1.Cl [GW461484] | % | 55 |

GET /value?item= O=C(NCCCN1CCOC1=O)c1cnc(NCc2cc(Cl)ccc2Cl)nc1NC1CCCC1 &field=%Inh returns 0

GET /value?item= Nc1nc(Nc2ccccc2)cc(-c2ccc3c(N)n[nH]c3c2)n1 [GSK2225749] &field=%Inh returns 0
